These data points were gathered from PubChem BioAssay (NCI).

test system: EKVX NSCLC; assay: NCI tumour cell line growth inhibition, 48 h
metric: GI50

Would you please look over these solved cases?
In [3]: df
Out[3]:
                                   molecule  observed_value
0  COC(=O)c1c2c(c(C)[n+]([O-])c1C)C(=O)C=C(NCc1cccc(OC)c1)C2=O         1.01 µM
1  COc1cc2c3c(n(CCCN)c(=O)c2cc1OC)-c1ccc(F)cc1C3=O         11.6 µM
2  COc1cc2cc(Oc3ccc(NC(=O)Nc4ccccc4)cc3)c(C)nc2cc1OCCN1CCCCC1         5.22 µM
3  O=C(Oc1ccc([N+](=O)[O-])cc1)N1CCN(Cc2cccc(Oc3ccccc3)c2)CC1         48.6 µM
4    N#C/C(=C\c1ccc(Br)cc1)n1nnc2cccc(F)c21         1.62 µM
5  CS(=O)(=O)N1CCN(Cc2cc3nc(-c4cccc5[nH]ncc45)nc(N4CCOCC4)c3s2)CC1 (tested in a mixture with another compound)        0.087 µM
6  COc1cc2c3c(n(CCN)c(=O)c2cc1OC)-c1cc2c(cc1C3=O)OCO2         1.59 µM
7  COc1ccc2cc(C(=O)/C=C/c3cccc(Cl)c3Cl)ccc2c1         20.1 µM

Now look at this entry.
# input GET /values?readout=GI50&item= `Cc1cc(O)c2c(c1)C(=O)c1cc(O)cc(O)c1C2=O`
# output 24.3 µM

###

system: OVCAR-4 ovarian; test: NCI tumour cell line growth inhibition, 48 h
metric: TGI

Would you please look over these solved cases?
>>> df
                                   compound  observed_value
0  C=C1CC/C=C(/C(=O)O)CC[C@H]2[C@@H]1CC2(C)C        > 100 µM
1  O=C(CC/C(C/C(=N/O)c1ccc(F)cc1)=N/O)N(Cc1ccccc1)Cc1ccccc1        > 100 µM
2  O=C(O)CCC1COc2ccccc2O1 (stereo not given)         > 10 µM
3  O=C1C(Cl)=C(Nc2ccc3cn[nH]c3c2)C(=O)c2ccccc21         2.58 µM

Now look at this entry.
# input Recorded TGI for O=[N+]([O-])c1ccc(Cl)cc1C1ON=C(c2ccccc2)N1C12CC3CC(CC(C3)C1)C2 (stereo not given) with OVCAR-4 ovarian, please?
# output > 100 µM

###

Below: a set of entries, each annotated with reported TGI.
system: BT-549 breast; experiment: NCI tumour cell line growth inhibition, 48 h

Would you please look over these solved cases?
compound	TGI
COc1ccc2cc(C(=O)/C=C/c3cccc(Cl)c3Cl)ccc2c1	48.9 µM
COc1cc(/C=C/C(=O)c2cc(F)c(Cl)cc2Cl)cc(OC)c1OC	> 100 µM

# input GET /values?readout=TGI&item= `COc1ccc2nc(NCCCNCCO)c3sc4ccc(F)cc4c(=O)c3c2c1`
# output 31.7 µM

# input GET /values?readout=TGI&item= CC1(C)OCC2OC3([C@H](O)CCO)OC(C)(C)OC3C2O1 (stereo not given in full)
# output > 100 µM

# input GET /values?readout=TGI&item= `N#Cc1c(=O)c2cc([N+](=O)[O-])ccc2n2c1[nH]c1ccccc12`
# output > 69.5 µM

# input GET /values?readout=TGI&item= `CC1=C(C2=C(C)C(=O)C(=O)c3cc(C)ccc32)c2ccc(C)cc2C(=O)C1=O`
# output 0.374 µM
